Source: patent US20090162358A1

Molecular target: T1, N-terminal coupled CGGGEDVGSNKGAIIGLMVGG (22-38) ovalbumin conjugate (coupled by the N-terminus to ovalbumin)
T1 peptide: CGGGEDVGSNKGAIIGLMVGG
Assay: FMAT bead immunoassay, culture supernatant
Assay Endpoint: binding result

Binder	Assay Endpoint	Test Result
5C9 mouse monoclonal antibody (antibody, V domains shown, Mouse hybridoma antibody) VH: EVQLQQSGAEFVRPGASVKLSCTASGFNIKTYYIHWLKQRTDQGLEWIGRIDPEDGETKFGPKFRGKATLTADTSSNTASLQLSSLTSEDTGVYYCVTSGYWGQGTTLSVSS VL: DIVMTQAAFSNPVTLGTSASISCRSSKSLLHSNGITYLYWYLQKPGQSPQLLIYQMSNLASGVPDRFSSSGSGTDFTLRISRVEAEDVGVYYCAQNLELWTFGGGTKLEIK	binding result	binds
4D4 mouse monoclonal antibody (antibody, V domains shown, Mouse hybridoma antibody) VH: EVQLQQSGAELVEPGASVKLSCTGSGFNIKVYYVHWLKQLTEQGLEWIGRIDPENGETLYTPKFQGKATLTVDTSSNTAYLQLNSLTSEDTAVYYCVSSGYWGQGTSLTVSS VL: DIVMTQSAFSNPVTLGTSASISCRSSKSLLHRNGITYLYWYLQKPGQSPQLLIYQMSNLASGVPDRFTSSGSGTDFTLKISRVEAEDVGVYYCAQNLELWTFGGGTKLEIK	binding result	binds
6F6 murine monoclonal antibody (antibody, mouse IgG2a, V domains shown, also called 6F6 parental monoclonal antibody; mouse 6F6 monoclonal antibody) VH: EVQLQQSGAELVEPGASVKLSCTGSGFNIKVYYVHWLKQLTEQGLEWIGRIDPENGETIYTPKFQDKATLTVDTSSNTAYLQLSSLTSEDAAVYYCVSSGYWGQGTTLTVSS VL: DIVMTQSAFSNPVTLGTSASISCRSSKSLLHRNGITYLYWYLQKPGQPPQLLIYQMSNLASGVPDRFTSSGSGTDFTLKISRVEAEDVGVYYCAQNLELWTFGGGTKLEIK	binding result	binds
